Each recorded value in this set is attributed to patent US20240301067A1.

Biological target: T1, Mouse PD-1 extracellular domain, hFc tag (mouse, UniProt Q02242 25-169)
T1 construct: extracellular domain; also called mPro1.ECD.hFc; not shown: human Fc tag at C-terminus
T1 sequence (looked up): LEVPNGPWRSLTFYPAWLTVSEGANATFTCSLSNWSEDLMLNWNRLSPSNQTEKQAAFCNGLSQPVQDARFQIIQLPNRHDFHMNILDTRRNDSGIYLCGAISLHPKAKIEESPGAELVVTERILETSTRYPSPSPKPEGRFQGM
Test: SPR Biacore 8K; PD-1-hFc captured on anti-human Fc chip, VHH injected; 1:1 fit
So I've got a bunch of binders here, and I need their kon values.
Please state the value followed by its unit.

Prompt: Fill in: kon of AP17R1-2H2-Z1-R1-4B2 (VHH, not shown: his- and c-Myc-tag from vector pETbac) VHH: QVQLVESGGGVVQPGGSLRLSCAASDSISSLVNMGWYRQAPGKQRELVALIANYITHYADFVKGRFTISRDNSKNTLYLQMNSLRAEDTAVYYCYARNIIVDYWGQGTLVTVSS is ___
Response: 292000 M⁻¹ s⁻¹

Prompt: Lookup AP17R1-2H2-Z1-R1-30D3 (VHH, not shown: his- and c-Myc-tag from vector pETbac) VHH: QVQLVESGGGVVQPGGSLRLSCAASDSIDSLVNMGWYRQAPGKQRELVALIANYITHYADFVKGRFTISRDNSKNTLYLQMNSLRAEDTAVYYCYARNIIEDYWGQGTLVTVSS
Response: 277000 M⁻¹ s⁻¹
